// % change from control Cardiac depression (pre-ischemia) LVSP x HR lookup, one value per entry
- Tested on: heart isolated from male guinea-pig
- MEASUREMENT NOTES: Test 1: isolated guinea-pig heart perfused in the Langendorff mode, global ischemia (35 min) and reperfusion (40 min)
- EXPERIMENTAL CONDITIONS: concentration 1 x 10⁻⁵ g/ml in perfusion medium, 15 min before ischemia
- Protocol: The heart was isolated from male guinea-pig weighing 550-650 g and was perfused in the Langendorff mode at 37°C at a constant perfusion pressure of 80 cm H₂O. The perfusion medium was Krebs-Henseleit bicarbonate solution containing 11 mM glucose. […] A latex balloon was placed in the left ventricular cavity and then left ventricular systolic (LVSP) and diastolic (LVDP) pressure were measured. […] Coronary flow was monitored with electromagnetic flow probe placed on the aorta. […]
Please respond with the number in % and leave the unit unwritten.

Solved cases (6 shown):
> print(dat)
                                   compound                      subject.of.test  endpoint.result
1  Cc1nc(-c2ccccc2)cc(-c2cccc([N+](=O)[O-])c2)c1C(=O)NCCN1CCOCC1 [(a)]  heart isolated from male guinea-pig             -1.7
2  Cc1nc(-c2ccccc2)cc(-c2cccc([N+](=O)[O-])c2)c1NC(=O)NCCN(C)C [(g)]  heart isolated from male guinea-pig            -85.7
3  Cc1nc(-c2ccccc2)cc(-c2cccc([N+](=O)[O-])c2)c1C(=O)NCCN(C)C [(e)]  heart isolated from male guinea-pig            -90.6
4  CN1CCN(Cc2nnc(-c3ccccc3)cc2-c2cccc([N+](=O)[O-])c2)CC1 [(b)]  heart isolated from male guinea-pig            -95.8
5  Cc1cc(-c2ccccc2)nc(-c2cccc([N+](=O)[O-])c2)c1C(=O)NCCN1CCOCC1 [(c)]  heart isolated from male guinea-pig            -38.9
6  Cc1nc(-c2ccccc2)cc(-c2cccc([N+](=O)[O-])c2)c1C(=O)N1CCN(C)CC1 [(d)]  heart isolated from male guinea-pig            -29.7

Which % change from control Cardiac depression (pre-ischemia) LVSP x HR value is on record for Cc1nc(-c2ccccc2)cc(-c2cccc([N+](=O)[O-])c2)c1C(=O)NCCN1CCSCC1.O=C(O)/C=C/C(=O)O [(f)] ? -45.2
